# System: P388 leukemia ip, CD2F1 mice, survival T/C
# Assay Protocol: NCI In Vivo Anticancer Drug Screen. Data for tumor model P388 Leukemia (intraperitoneal) in CD2F1 (CDF1) mice
# Condition Info: endpoint: median survival time; dose: 400.0 mg/kg/injection; schedule: Q04DX002 (ip); vehicle: Klucel (hydroxypropylcellulose) (HPC); higher = longer survival
# Protocol: The antitumor activity of compounds was measured in mice bearing transplantable tumors. Survival or tumor size were measured and the results are expressed as the measurement made in the treated group (T) divided by the measurement made in the vehicle treated control group (C). The tumor model used in this assay is P388 Leukemia (intraperitoneal) in CD2F1 (CDF1) mice
Inconclusive results and toxic doses are left out.
Property Name: T/C

Recorded results for 4 compounds are shown here.
INSERT INTO results (compound, observed) VALUES
  ('CCOC1(C2(O)CCCCC2)CC(C)=NO1 (stereo not given)', '102 % of control'),
  ('CC1(C)C=Cc2cc3c(cc2O1)OC[C@H]1c2cc4c(cc2O[C@@H]31)OCO4', '89 % of control'),
  ('O=[N+]([O-])c1cccc(SNSc2cccc([N+](=O)[O-])c2)c1', '94 % of control'),
  ('NNC(=O)C1CC2CCCCC2CC1O (stereo not given)', '108 % of control');

Please turn your attention to the following entry.
Tell me measured T/C for CSC(=S)n1nc(-c2ccccc2)c(N=Nc2ccc(Br)cc2)c1C please.
94 % of control
